biological target: human HSP90 alpha protein (HSP90 N-terminal protein, amino acids 2-236) (Homo sapiens (Human), UniProt P07900); assay: Measurement of HSP90-binding activity (AlphaScreen competitive assay, biotin-labeled geldanamycin); conditions: concentration inhibiting binding of biotin-labeled geldanamycin (40 nM) to purified HSP90 to 50% of control; read-out: HSP-binding activity IC50
endpoint: IC50 (nM)

Some entries whose results are on file:
molecule: Cc1cn(-c2ccc(C(N)=O)c(NCCCCO)c2)c2nccc(-c3cnc4ccccc4c3)c12 [Example 55]
IC50, nM: 2810

molecule: CCNc1cc(-n2nc(C(C)C)c3c(-n4cnc(-c5cnn(CC)c5)c4)ccnc32)ccc1C(N)=O [Example 146]
IC50, nM: 770

molecule: Cc1cn(-c2ccc(C(N)=O)c(NC3CCC(O)CC3)c2)c2nccc(-n3cnc(-c4ccccc4)c3)c12 (stereo not shown) [Example 97]
IC50, nM: 240

molecule: NC(=O)c1ccc(-n2nc(C(F)(F)F)c3c(-n4cnc(-c5cccnc5)c4)ccnc32)c(NC2CCCC2)c1 [Example 183]
IC50, nM: 330

molecule: Cn1cc(-c2cn(-c3ccnc4c3c(C(F)(F)F)nn4-c3ccc(C(N)=O)cc3N)cn2)cn1 [Example 158]
IC50, nM: 100

molecule: CCc1cn(-c2ccc(C(N)=O)c(NCCCCO)c2)c2nccc(-c3cnc4ccccc4c3)c12 [Example 74]
IC50, nM: 340

molecule: CC(C)c1cc(C(N)=O)ccc1-n1nc(C(C)C)c2c(-n3cnc(-c4cccnc4)c3)ccnc21 [Example 137]
IC50, nM: 280

molecule: COc1ccc(-c2cn(-c3ccnc4c3c(C(C)C)nn4-c3ccc(C(N)=O)c(N(O)C4CCCCC4)c3)cn2)cc1 [Example 83]
IC50, nM: 400

molecule: CC(C)c1cc(C(N)=O)ccc1-n1nc(C(C)C)c2c(-n3cnc(-c4cnn(C)c4)c3)ccnc21 [Example 104]
IC50, nM: 120

molecule: Cc1c(C(N)=O)ccc(-n2nc(C(C)C)c3c(-n4cnc(-c5cnn(C)c5)c4)ccnc32)c1C [Example 129]
IC50, nM: 290

I. NC(=O)c1ccc(-n2cc(C(F)(F)F)c3c(-c4cnc5ccccc5c4)ccnc32)cc1N[C@H]1CC[C@H](O)CC1 [Example 43]
II. CC(C)c1nn(-c2ccc(C(N)=O)c(Nc3ccc(C(=O)N4CCCC4)cc3)c2)c2nccc(-c3cnc4ccccc4c3)c12 [Example 34]
III. CC(C)NC(=O)c1ccc(-c2cn(-c3ccnc4c3c(C(C)C)nn4-c3ccc(C(N)=O)cc3Cl)cn2)cc1 [Example 150]
IV. CC(C)c1nn(-c2ccc(C(N)=O)c(NC3CCN(C(=O)CN)CC3)c2)c2nccc(-c3cnc4ccccc4c3)c12 [Example 79]
V. CC(C)c1nn(-c2ccc(C(N)=O)c(NC3CCC(O)CC3)c2)c2nccc(-n3cnc(-c4cnn(CO)c4)c3)c12 (stereo not shown) [Example 96]
Query: Hey, quick one: sort these by IC50, largest value first please. List the labels according to the requested ordering.
Reply: III, II, IV, I, V
(III: 930 nM, II: 570 nM, IV: 250 nM, I: 100 nM, V: 60 nM)

I. Cc1cn(-c2ccc(C(N)=O)c(N[C@@H]3CCCC[C@H]3N)c2)c2nccc(-c3cnc4ccccc4c3)c12 (relative stereo) [Example 64]
II. Cn1cc(-c2cn(-c3ccnc4c3c(C(F)(F)F)nn4-c3ccc(C(N)=O)c(N)c3)cn2)cn1 [Example 157]
III. CC(C)c1nn(-c2ccc(C(N)=O)c(Nc3ccc(N4CCOCC4)cc3)c2)c2nccc(-c3cnc4ccccc4c3)c12 [Example 33]
IV. CC(C)c1nn(-c2ccc(C(N)=O)cc2CN2CCOCC2)c2nccc(-n3cnc(-c4cnn(C)c4)c3)c12 [Example 127]
Query: Hey, quick one: sort these by IC50, largest value first please. List the labels according to the requested ordering.
Reply: III, I, IV, II
(III: 1140 nM, I: 420 nM, IV: 230 nM, II: 130 nM)

* * *

test system: SK-BR-3 cells; assay: Measurement of cell growth inhibition (crystal violet staining method); format: cell-based; conditions: breast cancer SK-BR-3 cells, 72 hr culture with test substance
pIC50: −log10 of the molar value.
endpoint: pIC50

molecule: CC(C)c1nn(-c2ccc(C(N)=O)c(NC3CCC(O)CC3)c2)c2nccc(-n3cnc(-c4ccsc4)c3)c12 (centres unmarked)
pIC50: 7.15

molecule: CC(C)c1nn(-c2ccc(C(N)=O)c(NC3CCC(O)CC3)c2)c2nccc(-n3cnc(-c4cnn(CO)c4)c3)c12 (centres unmarked)
pIC50: 7.22

* * *

system: SK-BR-3 cells; experiment: Measurement of cell growth inhibition (crystal violet staining method); format: cell-based; conditions: Homo sapiens; breast cancer SK-BR-3 cells, 72 hr culture with test substance
pIC50: −log10 of the molar value.
endpoint: pIC50

Some entries whose results are on file:
compound string: NC(=O)c1ccc(-n2nc(C(F)(F)F)c3c(-n4cnc(-c5cccnc5)c4)ccnc32)c(NC2CCC2)c1
measurement: 6.89

compound string: COc1ccc(-c2ccnc3c2c(C(C)C)nn3-c2ccc(C(N)=O)c(N[C@H]3CC[C@H](O)CC3)c2)cn1
measurement: 6.23

compound string: Cc1cc(C(N)=O)ccc1-n1nc(C(C)C)c2c(-n3cnc(-c4cccnc4)c3)ccnc21
measurement: 6.16

compound string: CC(C)c1nn(-c2ccc(C(N)=O)c(N[C@H]3CC[C@H](O)CC3)c2)c2nccc(-c3cnc4ccccc4c3)c12
measurement: 7.52

compound string: CCCNc1cc(C(N)=O)ccc1-n1nc(C(F)(F)F)c2c(-n3cnc(-c4cnn(C)c4)c3)ccnc21
measurement: 7.22

P. NC(=O)c1ccc(-n2cc(C(F)(F)F)c3c(-c4cnc5ccccc5c4)ccnc32)cc1N[C@H]1CC[C@H](O)CC1
Q. CC(C)n1cc(-c2cn(-c3ccnc4c3c(C(F)(F)F)nn4-c3ccc(C(N)=O)cc3N)cn2)cn1
Query: Just curious, which one has the larger pIC50 reading, P or Q ? Identify your pick by its label.
Reply: P

* * *

target: human HSP90 alpha protein (HSP90 N-terminal protein, amino acids 2-236) (Homo sapiens (Human), UniProt P07900); test: Measurement of HSP90-binding activity (AlphaScreen competitive assay, biotin-labeled geldanamycin); settings: concentration inhibiting binding of biotin-labeled geldanamycin (40 nM) to purified HSP90 to 50% of control; read-out: HSP-binding activity IC50
pIC50: −log10 of the molar value.
endpoint: pIC50

compound string: CCc1cc(C(N)=O)ccc1-n1nc(C(F)(F)F)c2c(-n3cnc(-c4cnn(C)c4)c3)ccnc21
measurement: 6.96
--
compound string: CC(C)c1nn(-c2ccc(C(N)=O)c(NCCCN(C)C)c2)c2nccc(-c3cnc4ccccc4c3)c12
measurement: 6.49
--
compound string: CC(C)Nc1cc(C(N)=O)ccc1-n1nc(C(F)(F)F)c2c(-n3cnc(-c4cnn(C)c4)c3)ccnc21
measurement: 6.96

A. CC(C)c1nn(-c2ccc(C(N)=O)c(NCCN(C)C)c2)c2nccc(-c3cnc4ccccc4c3)c12
B. CCCc1cc(C(N)=O)ccc1-n1nc(C(F)(F)F)c2c(-n3cnc(-c4cnn(C)c4)c3)ccnc21
C. Cc1cc(C(N)=O)ccc1-n1nc(C(F)(F)F)c2c(-c3cnc4ccccc4c3)ccnc21
Query: Hey, quick one: sort these by pIC50, largest value first please. List the labels according to the requested ordering.
Reply: B, A, C

* * *

biological target: human HSP90 alpha protein (HSP90 N-terminal protein, amino acids 2-236) (Homo sapiens (Human)); assay: Measurement of HSP90-binding activity (AlphaScreen competitive assay, biotin-labeled geldanamycin); conditions: concentration inhibiting binding of biotin-labeled geldanamycin (40 nM) to purified HSP90 to 50% of control; read-out: HSP-binding activity IC50
pIC50: −log10 of the molar value.
endpoint: pIC50

Some entries whose results are on file:
compound: CCNc1cc(C(N)=O)ccc1-n1nc(C(F)(F)F)c2c(-n3cnc(-c4cccnc4)c3)ccnc21 [Example 180]
pIC50: 6.72
--
compound: CCCNc1cc(C(N)=O)ccc1-n1nc(C(C)C)c2c(-n3cnc(-c4cnn(C)c4)c3)ccnc21 [Example 122]
pIC50: 6.74
--
compound: CC(C)c1nn(-c2ccc(C(N)=O)c(NC3CCC(O)CC3)c2)c2nccc(-n3cnc(-c4ccco4)c3)c12 (stereo not drawn) [Example 88]
pIC50: 6.17

I. CC(C)c1nn(-c2ccc(C(N)=O)c(Nc3ccc(CN4CCCC4)cc3)c2)c2nccc(-c3cnc4ccccc4c3)c12 [Example 35]
II. CCc1cc(C(N)=O)ccc1-n1nc(C(C)C)c2c(-n3cnc(-c4cnn(C)c4)c3)ccnc21 [Example 102]
Query: Just curious, which one has the larger pIC50 reading, I or II ? Identify your pick by its label.
Reply: II

* * *

biological target: human HSP90 alpha protein (HSP90 N-terminal protein, amino acids 2-236) (Homo sapiens (Human), UniProt P07900); assay: Measurement of HSP90-binding activity (AlphaScreen competitive assay, biotin-labeled geldanamycin); settings: read-out: HSP-binding activity IC50
endpoint: pIC50
Please keep in mind that pIC50 is minus log10 of the molar concentration; only the number is needed.

compound string: CC(C)c1nn(-c2ccc(C(N)=O)c(N[C@H]3CC[C@H](O)CC3)c2)c2ccnc(-c3cnc4ccccc4c3)c12
endpoint: pIC50
measurement: 5.80

Turning to the following compound.
Query: I have this compound here, CC(C)c1nn(-c2ccc(C(N)=O)c(N[C@H]3CC[C@H](O)CC3)c2)c2cncc(-c3cnc4ccccc4c3)c12 , and I need its recorded pIC50.
Reply: 6.80
